procedure summary: AUC in cynomolgus monkey at 2.5 mg/kg, po
Type: ADME, organism-based, Macaca fascicularis
Design: dose 2.5 mg/kg, route oral
condition context: plasma
result type: AUC (µg·h/mL)
Give the quantity in µg·h/mL, number only.

C[C@]1(c2nc3c(C(N)=O)cccc3[nH]2)CCCN1 : 1.3

AUC for `C[C@@]1(c2nc3c(C(N)=O)cccc3[nH]2)CCCN1` is 0.7

----------
procedure summary: Clearance in cynomolgus monkey at 2.5 mg/kg
Assay type: ADME, organism-based, Macaca fascicularis
Parameters: dose 2.5 mg/kg
condition context: in vivo
result type: clearance (mL/min/kg)
Give the quantity in mL/min/kg, number only.

C[C@@]1(c2nc3c(C(N)=O)cccc3[nH]2)CCCN1 : 23.3

clearance for `C[C@]1(c2nc3c(C(N)=O)cccc3[nH]2)CCCN1` is 18.3
